# Target Entity: CDK2 (Homo sapiens, UniProt P24941)
# Construct: purchased Carna Company
# Assay Text: CDK enzymology experiment in vitro, capillary mobility shift assay (MSA)
# Type: biochemical
# Stated Conditions: read-out: CDK2 (nM) inhibitory IC50
Reported Property: IC50

Below, each entry is followed by its recorded IC50 result.
IC50 for Cn1cc(S(=O)(=O)N2CCC(Nc3ncc(C(F)(F)F)c(O[C@@H]4COC[C@@H]4F)n3)CC2)cn1 is 2.5 to 10 nM

Recorded result, Cn1cc(S(=O)(=O)N2CCC(Nc3cc(O[C@H]4CCOC4)c(C#N)cn3)CC2)cn1 , IC50: 2.5 to 10 nM

So for O=S(=O)(c1ccc(N2CC3CCC(C2)N3)nc1)N1CCC(Nc2ncc(C(F)(F)F)c(O[C@H]3CCOC3)n2)CC1 , the logged IC50 turned out to be < 0.5 nM

So, Cn1cc(S(=O)(=O)N2CCC(Nc3ncc(C#N)c(N[C@@H]4CC[C@@H](O)C4)n3)CC2)cn1 (single isomer, unassigned) ? Its IC50 was 2.5 to 10 nM

Record CO[C@@H]1CCC[C@H]1Nc1nc(NC2CCN(S(=O)(=O)c3cnn(C)c3)CC2)ncc1C#N , field IC50: 10 to 50 nM

---
// sample Cn1cc(S(=O)(=O)N2CC[C@@H](Nc3ncc(C(F)(F)F)c(O[C@H]4CCOC4)n3)[C@H](F)C2)cn1 , its IC50 was 0.5 to 2.5 nM

Entry O=S(=O)(c1ccc(N2CC3CC(C2)N3)nc1)N1CCC(Nc2ncc(C(F)(F)F)c(O[C@H]3CCOC3)n2)CC1 — recorded IC50 = < 0.5 nM
